The reported measurements were obtained from patent US20100168421A1.

test system: Streptococcus Pneumoniae Pen S; test: MIC microdilution, S. Pneumoniae Pen S; type: cell-based; conditions: 24 h, read-out: MIC Streptococcus Pneumoniae Pen S
Field: MIC. Provide a value for each of the compounds that follow.
Dear colleague, please send the value followed by its unit.

COMPOUND	VALUE OBSERVED
CC(C)(C)[C@H](NC(=O)[C@H](CC1CCCC1)CN(O)C=O)C(=O)N1CCC(Nc2ccccc2)CC1 [Example 15]	0.1 mg/L

For every item below, please supply its MIC.
1. CC(C)(C)[C@H](NC(=O)[C@H](CC1CCCC1)CN(O)C=O)C(=O)N1CCC(Nc2ccc(F)cc2F)CC1 [Example 23]
2. CC(C)(C)[C@H](NC(=O)[C@H](CC1CCCC1)CN(O)C=O)C(=O)N1CCC(Nc2ccc(F)cc2)CC1 [Example 17]
3. CN[C@H](CC(C)C)C(=O)N[C@H]1C(=O)N[C@@H](CC(N)=O)C(=O)N[C@H]2C(=O)N[C@H]3C(=O)N[C@H](C(=O)N[C@H](C(=O)O)c4cc(O)cc(O)c4-c4cc3ccc4O)[C@H](O)c3ccc(c(Cl)c3)Oc3cc2cc(c3O[C@@H]2O[C@H](CO)[C@@H](O)[C@H](O)[C@H]2O[C@H]2C[C@](C)(N)[C@H](O)[C@H](C)O2)Oc2ccc(cc2Cl)[C@H]1O [Vancomycin, reference compound]

Reply:
["0.05 mg/L", "0.2 mg/L", "0.2 mg/L"]

---

molecular target: PDF enzyme (Escherichia coli); experiment: PDF/FDH coupled enzyme assay, E. coli; assay type: biochemical; conditions: PDF/FDH coupled assay, substrate fMAS, absorption at 340 nm; read-out: IC50 Escherichia coli
Sequence (P0A6K3 whole entry): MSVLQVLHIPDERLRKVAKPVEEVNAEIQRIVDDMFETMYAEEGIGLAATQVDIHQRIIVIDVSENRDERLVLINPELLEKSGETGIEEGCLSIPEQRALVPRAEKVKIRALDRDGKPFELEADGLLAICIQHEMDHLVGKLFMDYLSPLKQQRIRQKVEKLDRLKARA
MEASURED METRIC: pIC50
Numbers only, as −log10 of the molar value.

Sample records with pIC50:
SMILES REPR	pIC50
CC(C)(C)[C@H](NC(=O)[C@H](CC1CCCC1)CN(O)C=O)C(=O)N1CCC(Nc2ccc(O)cc2)CC1	6.99
CC(C)(C)[C@H](NC(=O)[C@H](CC1CCCC1)CN(O)C=O)C(=O)N1CCC(NCc2ccc(O)cc2)CC1	6.99
Cc1ccc(CNC2CCN(C(=O)[C@@H](NC(=O)[C@H](CC3CCCC3)CN(O)C=O)C(C)(C)C)CC2)cc1	6.88

From here, focus on the item given below.
Ask: Give its pIC50 value. Item: `CN(c1ccccc1)C1CCN(C(=O)[C@@H](NC(=O)[C@H](CC2CCCC2)CN(O)C=O)C(C)(C)C)CC1`
Reply: 6.95

---

Field: MIC. Provide a value for each of the compounds that follow.
system: Streptococcus Pneumoniae Pen NS; experiment: MIC microdilution, S. Pneumoniae Pen NS; format: cell-based; conditions: microdilution, Mueller-Hinton Broth, 37° C., 24 hours, read-out: MIC Streptococcus Pneumoniae Pen NS
One number for each entry, in µg/mL.

Sample records with MIC:
COMPOUND	ASSAYED TARGET	MIC [µg/mL]
COc1ccc(NC2CCN(C(=O)[C@@H](NC(=O)[C@H](CC3CCCC3)CN(O)C=O)C(C)(C)C)CC2)c(OC)c1 [Example 24]	Streptococcus Pneumoniae Pen NS	0.4
CN(c1ccccc1)C1CCN(C(=O)[C@@H](NC(=O)[C@H](CC2CCCC2)CN(O)C=O)C(C)(C)C)CC1 [Example 22]	Streptococcus Pneumoniae Pen NS	0.2
CC(C)(C)[C@H](NC(=O)[C@H](CC1CCCC1)CN(O)C=O)C(=O)N1CCC(Nc2ccc(N3CCOCC3)c(F)c2)CC1 [Example 25]	Streptococcus Pneumoniae Pen NS	1.6
COC(=O)c1ccc(NC2CCN(C(=O)[C@@H](NC(=O)[C@H](CC3CCCC3)CN(O)C=O)C(C)(C)C)CC2)cc1 [Example 21]	Streptococcus Pneumoniae Pen NS	0.8
COc1ccc(CNC2CCN(C(=O)[C@@H](NC(=O)[C@H](CC3CCCC3)CN(O)C=O)C(C)(C)C)CC2)cc1 [Example 5]	Streptococcus Pneumoniae Pen NS	0.8
CC(C)(C)[C@H](NC(=O)[C@H](CC1CCCC1)CN(O)C=O)C(=O)N1CCC(NCc2ccc(O)cc2)CC1 [Example 6]	Streptococcus Pneumoniae Pen NS	3.1

From here, focus on the item given below.
Ask: Give its MIC value. Item: Cc1ccc(CNC2CCN(C(=O)[C@@H](NC(=O)[C@H](CC3CCCC3)CN(O)C=O)C(C)(C)C)CC2)cc1 [Example 2]
Reply: 0.4
